Recorded DY increase values for a group of molecules are listed next.
Assay remarks: Bleaching action in washing agents (LINITEST, DY increase)
Run parameters: 1:1 Mn complex with ligand, 50 μmol/l; H2O2 8.6 mmol/l; ECE washing agent 7.5 g/l; 30 minutes at 40° C.; versus no catalyst
Respond using a number only.

Sample answers from the record:
# Molecule, DY increase
records = [
    ("CN1CCN(c2cc(-c3ccccn3)nc(-c3ccccn3)c2)CC1 [Ligand L8]", 5.0),
    ("CCOc1ccnc(-c2cc(N(CCO)CCO)cc(-c3cc(OCC)ccn3)n2)c1 [Ligand L28]", 4.3),
    ("c1ccc(-c2cc(N3CCOCC3)cc(-c3ccccn3)n2)nc1 [Ligand L11]", 5.5),
    ("O=c1cc(-c2cc(N3CCCC3)ccn2)[nH]c(-c2cc(N3CCCC3)ccn2)c1 [Ligand L18]", 3.0),
    ("c1ccc(-c2cc(N3CCCC3)cc(-c3ccccn3)n2)nc1 [Ligand L6]", 5.8),
    ("CN(CCO)c1cc(-c2ccccn2)nc(-c2ccccn2)c1 [Ligand L5]", 5.2),
]

Query block: Read off the recorded DY increase for CCOc1ccnc(-c2cc(=O)cc(-c3cc(OCC)ccn3)[nH]2)c1 [Ligand L17]
Result block: 5.3

The reported numbers originate from patent US7692004B2.
